Listing: composite z-score of selected compounds
biological target: Torsin-1A-interacting protein 1 (Homo sapiens) (UniProt Q5JTV8); test: LAP1 binders from COS7 cell lysate, primary screen, small-molecule microarray, 635/667 nm fluorescence (AID 1116); settings: COS7-hLAP1 lysate binding, 635 nm fluorescence, higher = more signal
Sequence (Q5JTV8 whole entry, looked up): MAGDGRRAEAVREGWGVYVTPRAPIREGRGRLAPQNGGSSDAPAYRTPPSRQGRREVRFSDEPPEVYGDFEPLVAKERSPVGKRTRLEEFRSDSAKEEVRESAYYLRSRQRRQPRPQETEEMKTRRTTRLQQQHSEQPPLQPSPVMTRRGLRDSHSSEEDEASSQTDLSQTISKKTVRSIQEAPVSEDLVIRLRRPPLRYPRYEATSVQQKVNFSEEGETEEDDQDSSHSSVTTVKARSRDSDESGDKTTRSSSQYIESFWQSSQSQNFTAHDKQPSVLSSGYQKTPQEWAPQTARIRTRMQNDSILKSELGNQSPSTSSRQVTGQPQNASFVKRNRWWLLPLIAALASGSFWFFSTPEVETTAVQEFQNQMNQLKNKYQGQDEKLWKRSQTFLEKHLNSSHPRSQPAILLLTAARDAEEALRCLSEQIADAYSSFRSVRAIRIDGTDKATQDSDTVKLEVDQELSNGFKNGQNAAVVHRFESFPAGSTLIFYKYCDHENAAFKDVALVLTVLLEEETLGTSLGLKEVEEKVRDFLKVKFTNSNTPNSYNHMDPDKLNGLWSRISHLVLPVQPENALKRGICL
experimental-readout: composite z-score

compound=CC(C)C[C@@H]1NC(=O)[C@H]2C[C@@H](C(=O)NCCCCCCN)[C@@H](c3ccc(O)cc3)N2C1=O experimental_readout="composite z-score" endpoint_result=1.13
compound="CN1C(=O)C2C=CC(C(O)c3ccc(-c4ccccc4)s3)N(N(c3ccccc3)c3ccccc3)C2C1=O (stereo not given)" experimental_readout="composite z-score" endpoint_result=0.397
compound="COc1ccc(C(=O)O[C@H]2CC[C@]3(C)C4=C(CCC3C2(C)C)[C@]2(C)CC[C@H]([C@H](C)CCCC(C)C)[C@@]2(C)CC4)cc1 (stereo not given in full)" experimental_readout="composite z-score" endpoint_result=0.0921
compound=C=CCNC(=O)[C@H]1[C@@H]2C(=O)O[C@@H](c3ccccc3)[C@@H](c3ccccc3)N2[C@@H](c2ccccc2OCCO)[C@]12C(=O)Nc1ccc(C#CC3=CCCCC3)cc12 experimental_readout="composite z-score" endpoint_result=0.358
compound=O=C(NCc1ccccc1)[C@@]1(CCS(=O)(=O)c2ccccc2)N=C(c2ccc(OCCCO)cc2)O[C@H]1c1ccccc1 experimental_readout="composite z-score" endpoint_result=1.32
compound=COc1cc2c(cc1OC)CN(C(=O)[C@H]1[C@@H]3C(=O)O[C@@H](c4ccccc4)[C@@H](c4ccccc4)N3[C@@H](c3ccc(O)cc3)[C@]13C(=O)Nc1ccc(C#CC4=CCCCC4)cc13)CC2 experimental_readout="composite z-score" endpoint_result=0.885
compound=C=C(COC)/C(=C/C[C@@H](OC(C)=O)c1ccc(CO)o1)c1cnc2ccccc2c1 experimental_readout="composite z-score" endpoint_result=2.19
compound=C=C/C=C/[C@H]1C(=C)CN([C@@H](Cc2ccccc2)C(=O)OC)[C@@H]1[C@H](O)Cc1ccccc1 experimental_readout="composite z-score" endpoint_result=-0.207
compound=COC(=O)[C@@]1(Cc2ccc(OC)cc2)[C@H]2c3cc(C(=O)N(C)C)n(CCN4CNCC4=O)c3C[C@H]2CN1C(=O)c1ccccc1 experimental_readout="composite z-score" endpoint_result=0.528
compound=C=C(CCCC)C(=O)CC[C@H](OC(C)=O)c1cccc(OCCO)c1 experimental_readout="composite z-score" endpoint_result=1.31
compound=COC(=O)[C@@]1(Cc2ccc(F)cc2)[C@H]2c3cc(C(=O)N4CCCC4)n(Cc4cc(C)n(C)n4)c3C[C@H]2CN1C(=O)c1ccccc1 experimental_readout="composite z-score" endpoint_result=3.13
compound=CC(C)N1C(=O)[C@@]2(Cc3ccccc31)c1ccccc1C(=O)N(C1CCCCC1)[C@H]2c1ccc(CO)cc1 experimental_readout="composite z-score" endpoint_result=0.103
compound=C=CC[C@]1(C(=O)NCCCOC)N=C(c2ccc(OCCCO)cc2)O[C@H]1c1ccccc1N=[N+]=[N-] experimental_readout="composite z-score" endpoint_result=1.47
compound="CC(C)c1ccc(NN2C(C(O)c3cc(C(F)(F)F)cc(C(F)(F)F)c3)C=CC3C(=O)N(c4ccccc4)C(=O)C32)cc1 (stereo not given)" experimental_readout="composite z-score" endpoint_result=0.831
compound="CCCCC(O)C1C=CC2C(=O)N(c3ccccc3)C(=O)C2N1Nc1ccccc1F (stereo not given)" experimental_readout="composite z-score" endpoint_result=1.21
compound="CN1C(=O)C2C=CC(C(O)c3ccc(I)cc3)N(N3CCCCC3)C2C1=O (stereo not given)" experimental_readout="composite z-score" endpoint_result=1.19
compound=CCCC[C@H]1OB(O)C[C@H]2C1=C(COc1ccccc1)C[C@H]1C(=O)N(C)C(=O)[C@H]12 experimental_readout="composite z-score" endpoint_result=0.101
compound=COCCOC(=O)N1C(=O)[C@@]2(c3cc(C#Cc4ccc(OC)cc4)ccc31)[C@H](c1ccc(O)cc1)N1[C@H](c3ccccc3)[C@H](c3ccccc3)OC(=O)[C@H]1[C@@H]2C(=O)NC[C@H](O)c1ccccc1 experimental_readout="composite z-score" endpoint_result=0.681
compound=COc1ccc(CCN2C(=O)[C@@]3(c4ccc([N+](=O)[O-])cc4)CC(=O)N(C4CCCCC4)[C@@H]3c3ccc(CO)cc32)cc1 experimental_readout="composite z-score" endpoint_result=0.341
compound=Cc1ccc(S[C@]2(C(=O)NCC(C)C)CC(=O)N(Cc3cc(C(F)(F)F)cc(C(F)(F)F)c3)[C@@H]2c2ccc(CO)cc2I)cc1 experimental_readout="composite z-score" endpoint_result=0.116
compound=CC(C)C[C@@H]1NC(=O)[C@H]2C[C@@H](C(=O)NCCCCCCN(C)C)[C@@H](c3ccc(O)cc3)N2C1=O experimental_readout="composite z-score" endpoint_result=1.03
compound=O=C1NCC(=O)N2[C@@H]1C[C@@H](C(=O)O)[C@H]2c1cccc(OCCO)c1 experimental_readout="composite z-score" endpoint_result=4.92
compound="[N-]=[N+]=NCc1ccccc1C[C@@]1(C(=O)NCC(O)CO)N=C(c2ccc(OCCCO)cc2)O[C@@H]1c1ccccc1N=[N+]=[N-] (stereo not given in full)" experimental_readout="composite z-score" endpoint_result=2.18
compound="O=C1OCCC/C=C\\[C@H]2OC34C=CCN(Cn5nnc6ccccc65)C(=O)[C@H]3N(CCO)C(=O)[C@@H]4C12 (stereo not given in full)" experimental_readout="composite z-score" endpoint_result=-0.482
compound=C=C(CCCC)C(=O)CC[C@H](OC(=O)c1cccnc1)c1ccccc1OCCO experimental_readout="composite z-score" endpoint_result=-0.0529
compound=CC[C@@H]1C=C(C(=O)O)[C@H](c2ccco2)N1S(=O)(=O)c1ccc(C)cc1 experimental_readout="composite z-score" endpoint_result=0.018
compound=C[C@@H]1ON(c2cccc(C(=O)OC(C)(C)C)c2)[C@H](c2ccc(Br)cc2)[C@H]1C(=O)N1C(=O)OC[C@H]1Cc1ccccc1 experimental_readout="composite z-score" endpoint_result=2.7
compound=COC(=O)[C@@]1(Cc2ccc(OC)cc2)[C@H]2c3cc(C(=O)N4CCCC4)n(Cc4ccccc4)c3C[C@H]2CN1C(=O)c1ccccc1 experimental_readout="composite z-score" endpoint_result=0.0976
compound=CCCN1C(=O)[C@]2(CCS(=O)(=O)c3ccccc3)N=C(c3ccc(OCCCO)cc3)O[C@@H]2c2ccccc21 experimental_readout="composite z-score" endpoint_result=1.74
compound=C=CCN1C(=O)[C@]2(O[C@H](CCO)[C@@H]([Si](C)(C)c3ccc(OC)cc3)[C@@H]2C)c2cc(N3CCCCC3=O)ccc21 experimental_readout="composite z-score" endpoint_result=0.957

Values from PubChem BioAssay
